Experiment: 2 weeks GLP dog toxicology study with toxicokinetics
Assay type: in vivo
Settings: both, beagle, dog, plasma, po, 1000 mg/kg/day, AUC0-8, dog, EDI048 1000 mg/kg/day, day 14
Reported AUC(0-t) is given for each of the following compounds.
propertyMeasured: AUC(0-t) (ng·h/mL)

• COC(=O)c1cc(N(C)C(=O)c2ccn3ncc(-c4ccc(C(=O)O)cc4)c3c2)ccc1Cl = 1180
• CNC(=O)c1ccc(-c2cnn3ccc(C(=O)N(C)c4ccc(Cl)c(C(=O)OC)c4)cc23)cc1 = 634
• CNC(=O)c1ccc(-c2cnn3ccc(C(=O)N(C)c4ccc(Cl)c(C(=O)O)c4)cc23)cc1 = 301
